Tested on: HTT mRNA
Test: RT-qPCR splicing assay, HTT mRNA canonical (CJ) and alternative (AJ) junction
Format: cell-based, human
Settings: Homo sapiens, RT-qPCR, HTT canonical junction mRNA decrease; read-out: HTT CJ (decrease in canonical junction mRNA, IC50)
pIC50: −log10 of the molar value. Where a name gives a salt, the structure may show the parent alone.
This listing pairs compounds with measured pIC50.

Cc1nc2c(F)cc(-c3ncc4cc(N5C[C@H](C)N[C@@H](C)C5)ccc4n3)cn2n1 [Compound 819, hydrochloride]    5.00 to 6.00
COc1nc(-c2ncc3cc(N4C[C@@H](C)N[C@@H](C)C4)ccc3n2)cn2cc(C)nc12    < 5.00
Cc1c(O)c(-c2nc(C3CCC3)c3cc(N4C[C@H](C)N[C@@H](C)C4)ccc3n2)cc2cn(C)nc12 (single isomer, unassigned)    < 5.00
Cn1cc2cc(-c3ncc4cc(N5CC[C@@H](NC(C)(C)C)C5)ccc4n3)c(O)c(F)c2n1    5.00 to 6.00
Cc1cn2cc(-c3ncc4cc(N5C[C@H](C)N[C@@H](C)C5)ccc4n3)cc(C#N)c2n1    6.00 to 7.00
Cc1c(O)c(-c2ncc3cc(N4CCC(N5CCC5)CC4)ccc3n2)cc2cn(C)nc12    6.00 to 7.00
C[C@H]1CN(c2cc(F)c3nc(-c4cc(F)c5nn(C)cc5c4)ccc3c2)C[C@H](C)N1 (single isomer, unassigned)    > 7.00
Cc1nc(-c2cc3cn(C)nc3c(C)c2O)nc2ccc(N3C[C@H](C)N[C@@H](C)C3)cc12 (single isomer, unassigned)    < 5.00
Cc1cn2nc(-c3ccc4cc(N5CCNC6(CC6)C5)cc(F)c4n3)cc(C)c2n1    6.00 to 7.00
Cc1cn2cc(-c3ncc4cc(N5C[C@H](C)N[C@@H](C)C5)ccc4n3)cc(Cl)c2n1 (single isomer, unassigned)    6.00 to 7.00

Which pIC50 is reported for this compound? Cc1cn2cc(-c3ncc4cc(N5C[C@H](C)NC6(CC6)C5)ccc4n3)cc(F)c2n1 (single isomer, unassigned)
6.00 to 7.00

Which pIC50 is reported for this compound? COc1cc(-c2ncc3cc(N4C[C@H](C)N[C@@H](C)C4)ccc3n2)cn2cc(C)nc12
5.00 to 6.00

Which pIC50 is reported for this compound? C[C@@H]1CN(c2ccc3nc(-c4cc(F)c5nc(CO)cn5c4)ncc3c2)C[C@H](C)N1
5.00 to 6.00

Which pIC50 is reported for this compound? C[C@H]1CN(c2ccc3nc(-c4cc5cn(C)nc5cc4O)nc(C(N)=O)c3c2)C[C@H](C)N1
5.00 to 6.00

====

Test system: HTT mRNA
Assay: RT-qPCR splicing assay, HTT mRNA canonical (CJ) and alternative (AJ) junction
Assay type: cell-based, human
Settings: Homo sapiens, HTT canonical junction mRNA, RT-qPCR; read-out: HTT CJ (decrease in CJ mRNA levels, IC50)
pIC50: −log10 of the molar value.
This listing pairs molecules with measured pIC50.

Cc1nc2c(C)c(O)c(-c3ccc4nc(N5CC[C@H](N[C@H]6C[C@H](F)C6)C5)ccc4n3)cc2o1 (single isomer, unassigned) [Compound 351]    > 7.00

--- query ---
Which pIC50 is reported for this molecule? COc1cc2nn(C)cc2cc1-c1ccc2c(F)c(C3CCNCC3)ccc2n1 [Compound 143]
< 5.00

====

Test system: MYB mRNA
Experiment: RT-qPCR splicing assay, MYB mRNA canonical (CJ) and alternative (AJ) junction
Assay type: cell-based, human
Details: Homo sapiens, MYB canonical junction mRNA, RT-qPCR; read-out: MYB CJ (decrease in CJ mRNA levels, IC50)
pIC50: −log10 of the molar value.
Endpoint: pIC50

Cn1cc2cc(-c3ccc4c(F)c(C5CCNCC5)ccc4n3)c(O)cc2n1 [Compound 115]    6.00 to 7.00

Which pIC50 is reported for this compound? Cn1cc2cc(-c3ccc4nc(C5CCNCC5)ccc4n3)c(F)cc2n1 [Compound 193]
5.00 to 6.00

Which pIC50 is reported for this compound? CN[C@@H]1CCN(c2ccc3nc(-c4cn5cc(C)nc5c(C)c4O)ncc3n2)C1 (single isomer, unassigned) [Compound 504]
6.00 to 7.00

Which pIC50 is reported for this compound? Cc1nc2c(C)c(O)c(-c3ccc4nc(N5CC[C@H](NCC6CC6)C5)ccc4n3)cc2o1 (single isomer, unassigned) [Compound 296]
6.00 to 7.00

Which pIC50 is reported for this compound? Cc1nc2cc(O)c(-c3ccc4nc(N5CC[C@@H](NC6CCC6)C5)ccc4n3)cc2o1 [Compound 229]
> 7.00

Which pIC50 is reported for this compound? CN[C@@H]1CCN(c2ccc3nc(-c4cc(C#N)c5nc(C)cn5c4)ncc3n2)C1 [Compound 407]
6.00 to 7.00

Which pIC50 is reported for this compound? CCN1CCC(c2ccc3nc(-c4cc5cn(C)nc5cc4O)ccc3n2)CC1 [Compound 138]
6.00 to 7.00

Which pIC50 is reported for this compound? CNC(=O)c1nc(-c2cc3cn(C)nc3c(F)c2O)nc2ccc(N3CCNC4(CC4)C3)cc12 [Compound 728]
> 7.00

Which pIC50 is reported for this compound? Cn1cc2cc(-c3ccc4nc(N5CC[C@H](NC(C)(C)C)C5)ccc4n3)c(O)c(F)c2n1 (single isomer, unassigned) [Compound 392]
> 7.00

Which pIC50 is reported for this compound? CNC(=O)c1nc(-c2cc3cn(C)nc3c(C)c2O)nc2ccc(N3C[C@H](C)N[C@@H](C)C3)cc12 [Compound 652]
> 7.00

Which pIC50 is reported for this compound? Cn1cc2cc(-c3ccc4nc(C5CCNCC5)ccc4n3)ncc2n1 [Compound 200]
5.00 to 6.00

Which pIC50 is reported for this compound? Cc1nc2c(C)c(O)c(-c3ccc4nc(N5CC[C@@H](NC(C)C)C5)ccc4n3)cc2o1 (single isomer, unassigned) [Compound 313]
> 7.00

Which pIC50 is reported for this compound? Cc1nc2c(C)c(O)c(-c3ccc4nc(N5CC[C@@H](N[C@H]6C[C@@H](F)C6)C5)ccc4n3)cc2o1 (stereo in doubt) [Compound 376]
> 7.00

Which pIC50 is reported for this compound? Cn1cc2cc(-c3ccc4nc(N5CC[C@H](N[C@H]6C[C@H](F)C6)C5)ccc4n3)c(O)cc2n1 [Compound 247]
> 7.00

Which pIC50 is reported for this compound? Cc1nc2c(F)c(O)c(-c3ccc4nc(N5CC[C@@H](N[C@H]6C[C@@H](F)C6)C5)ccc4n3)cc2o1 (stereo in doubt) [Compound 375]
> 7.00

====

This listing pairs molecules with measured IC50.
Test system: HTT mRNA
Assay: RT-qPCR splicing assay, HTT mRNA canonical (CJ) and alternative (AJ) junction
Type: cell-based, human
Conditions: Homo sapiens, HTT canonical junction mRNA, RT-qPCR; read-out: HTT CJ (decrease in CJ mRNA levels, IC50)

Known results for molecules:
Cc1nc2cc(O)c(-c3ccc4nc(N5CCC(NC(C)(C)C)C5)ccc4n3)cc2o1 (stereo not drawn)    < 100 nM
Cc1nc2c(C)c(O)c(-c3ccc4cc(N5CC[C@@H](NC(C)(C)C)C5)ncc4n3)cc2o1 (single isomer, unassigned)    < 100 nM
COc1cc2nc(C)sc2cc1-c1ccc2nc(N3CCC(NC(C)(C)C)C3)ccc2n1 (stereo not drawn)    1000 to 10000 nM
Cc1c(O)c(-c2ccc3nc(N4CC[C@H](NC(C)(C)C)C4)ccc3n2)cc2cn(C)nc12    < 100 nM
Cc1nc2cc(O)c(-c3ccc4cc(N5CC[C@H](NC(C)(C)C)C5)ncc4n3)cc2o1    1000 to 10000 nM

Which IC50 is reported for this molecule? Cc1nc2cc(O)c(-c3ccc4nc(N5CC[C@H](NC(C)(C)C)C5)ncc4n3)cc2o1
< 100 nM

Which IC50 is reported for this molecule? Cn1cc2cc(-c3ccc4nc(N5CCC(NC6CC6)C5)ccc4n3)c(O)cc2n1 (stereo not drawn)
< 100 nM

====

This listing pairs compounds with measured IC50.
Tested on: HTT
Test: HiBiT protein abundance assay, HTT (K562 HiBiT knock-in)
Assay type: cell-based, human
Conditions: HiBiT knock-in K562 cells, 24 hours, top dose 10 μM

CNC(=O)c1nc(-c2cc3cn(C)nc3c(F)c2O)nc2ccc(N3CCC(N(C)C)CC3)cc12    100 to 1000 nM

Which IC50 is reported for this compound? Cn1cc2cc(-c3ccc4nc(N5CCC(NC(C)(C)C)CC5)ccc4n3)c(O)cc2n1
> 10000 nM

Which IC50 is reported for this compound? Cn1cc2cc(-c3ccc4nc(N5CCC56CCNC6)ccc4n3)c(O)cc2n1 (stereo not shown)
> 10000 nM

Which IC50 is reported for this compound? Cn1cc2cc(-c3ccc4nc(N5CC[C@@H](N[C@H]6C[C@H](F)C6)C5)ccc4n3)c(O)cc2n1
< 100 nM
